assay_info: Rat pharmacokinetics (IV and PO)
Assay type: in vivo, male Sprague-Dawley rats
test_settings: male, Sprague-Dawley, plasma, IV bolus, 1 mg/kg, HCl salt, read-out: Vdss
readout: Vd (L/kg)

I. C[C@@H]1CN(c2cnc(C(F)(F)F)cn2)C[C@@H](C)N1C(=O)NCCC1CCN(Cc2ccccc2)CC1
II. C[C@@H]1CN(c2cnc(C(F)(F)F)cn2)C[C@H](C)N1C(=O)OCCC1CCN(Cc2ccccc2)CC1
Endpoint returns whichever of I and II has the numerically higher Vd. Identify your selection by its label.
II
(II: 28.2 L/kg, I: 16.1 L/kg)

* * *

assay_info: Rat pharmacokinetics (IV and PO)
Type: in vivo, male Sprague-Dawley rats
test_settings: male, Sprague-Dawley, plasma, iv, 1 mg/kg, IV bolus, HCl salt
readout: AUC(0-t) (ng·h/mL)

[[record]]
compound = "C[C@@H]1CN(c2cnc(C(F)(F)F)cn2)C[C@H](C)N1C(=O)OCCC1CCN(Cc2ccccc2)CC1 [Compound 1]"
readout = "AUC(0-t)"
value_observed = 357

[[record]]
compound = "C[C@@H]1CN(c2cnc(C(F)(F)F)cn2)C[C@@H](C)N1C(=O)NCCC1CCN(Cc2ccccc2)CC1 [Compound 4A]"
readout = "AUC(0-t)"
value_observed = 288


* * *

assay_info: Rat pharmacokinetics (IV and PO)
Assay type: in vivo, male Sprague-Dawley rats
test_settings: male, Sprague-Dawley, plasma, po, 10 mg/kg, PO 10 mg/kg, 10% PEG-400 in 0.5% MC (suspension), read-out: Tmax range
Procedure: The pharmacokinetics of Compounds 1, 2, 3A, and 4A were assessed in male Sprague-Dawley rats following either intravenously (IV) or orally (PO) dosing. Sin-life portions of the studies were either conducted internally at Neurocrine Biosciences or contracted to Charles River Laboratories or Agilux Laboratories. […] For IV and PO dose groups, descriptive pharmacokinetics were derived and evaluated based on the plasma concentrations from each individual rat. […]
readout: Tmax

I have this molecule here, C[C@@H]1CN(c2cnc(C(F)(F)F)cn2)C[C@H](C)N1C(=O)OCCC1CCN(Cc2ccccc2)CC1 , and I need its recorded Tmax.
2 to 7.5 h

* * *

pKi: −log10 of the molar value.
Reported pKi, human M4 receptor (Homo sapiens, UniProt P08173).
readout: pKi

a. C[C@@H]1CN(c2ncc(C#N)cn2)C[C@H](C)N1C(=O)NCCC1CCN(Cc2ccccc2)CC1
b. C[C@@H]1CN(c2cnc(C(F)(F)F)cn2)C[C@@H](C)N1C(=O)NCCC1CCN(Cc2ccccc2)CC1
Param metric = pKi; output whichever of a , b has the minimum value. Indicate your choice by writing its label.
b

* * *

assay_info: Rat pharmacokinetics (IV and PO)
Format: in vivo, male Sprague-Dawley rats
test_settings: male, Sprague-Dawley, plasma, IV infusion (1 hr), 2 mg/kg, HCl salt
readout: clearance (mL/min/kg)

a. C[C@@H]1CN(c2cnc(C(F)(F)F)cn2)C[C@H](C)N1C(=O)OCCC1CCN(Cc2ccccc2)CC1
b. C[C@@H]1CN(c2cnc(C(F)(F)F)cn2)C[C@@H](C)N1C(=O)OCCC1CCN(Cc2ccccc2)CC1
clearance comparison. Which is larger, a or b ? Respond with the label that goes with your answer.
b
(b: 44.9 mL/min/kg, a: 15.8 mL/min/kg)

* * *

assay_info: Rat pharmacokinetics (IV and PO)
Format: in vivo, male Sprague-Dawley rats
test_settings: male, Sprague-Dawley, plasma, iv, 2 mg/kg, IV infusion (1 hr), HCl salt
readout: AUC(0-inf) (ng·h/mL)

a. C[C@@H]1CN(c2cnc(C(F)(F)F)cn2)C[C@H](C)N1C(=O)OCCC1CCN(Cc2ccccc2)CC1
b. C[C@@H]1CN(c2cnc(C(F)(F)F)cn2)C[C@@H](C)N1C(=O)OCCC1CCN(Cc2ccccc2)CC1
Which value of AUC(0-inf) is numerically greater: that of a or that of b ? State the label of the item chosen.
a

* * *

assay_info: Rat pharmacokinetics (IV and PO)
Type: in vivo, male Sprague-Dawley rats
test_settings: male, Sprague-Dawley, plasma, po, 10 mg/kg, PO 10 mg/kg, 1% Tween-80 in water (suspension), read-out: Tmax range
readout: Tmax (h)
Write the answer as a number in h, unit excluded.

So what's the measured Tmax for this one? C[C@@H]1CN(c2cnc(C(F)(F)F)cn2)C[C@H](C)N1C(=O)OCCC1CCN(Cc2ccccc2)CC1
1

* * *

assay_info: Rat pharmacokinetics (IV and PO)
Assay type: in vivo, male Sprague-Dawley rats
test_settings: male, Sprague-Dawley, plasma, PO 10 mg/kg, 10% PEG-400 in 0.5% MC in water (solution)
readout: bioavailability (%)

[[record]]
molecule = "C[C@@H]1CN(c2cnc(C(F)(F)F)cn2)C[C@@H](C)N1C(=O)NCCC1CCN(Cc2ccccc2)CC1 [Compound 4A]"
readout = "bioavailability"
unit_symbol = "%"
value_observed = 59.2

[[record]]
molecule = "C[C@@H]1CN(c2cnc(C(F)(F)F)cn2)C[C@@H](C)N1C(=O)OCCC1CCN(Cc2ccccc2)CC1 [Compound 2]"
readout = "bioavailability"
unit_symbol = "%"
value_observed = 81.4


* * *

system: human M5 receptor (Homo sapiens)
Sequence (P08912 whole entry): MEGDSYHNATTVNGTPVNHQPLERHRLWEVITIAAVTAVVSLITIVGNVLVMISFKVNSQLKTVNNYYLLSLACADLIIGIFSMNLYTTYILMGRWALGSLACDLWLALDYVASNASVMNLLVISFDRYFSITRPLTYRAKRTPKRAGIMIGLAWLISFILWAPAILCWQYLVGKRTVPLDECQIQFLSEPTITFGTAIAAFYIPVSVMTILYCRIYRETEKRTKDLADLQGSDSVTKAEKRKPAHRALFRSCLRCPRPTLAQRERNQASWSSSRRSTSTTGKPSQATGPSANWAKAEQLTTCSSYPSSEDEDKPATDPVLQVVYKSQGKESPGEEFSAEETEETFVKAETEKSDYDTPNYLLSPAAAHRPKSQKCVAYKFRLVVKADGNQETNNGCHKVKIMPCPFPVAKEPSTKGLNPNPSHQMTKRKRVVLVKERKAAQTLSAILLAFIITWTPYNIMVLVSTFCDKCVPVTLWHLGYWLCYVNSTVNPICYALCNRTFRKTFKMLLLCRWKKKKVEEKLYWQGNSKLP
pKi: −log10 of the molar value.
readout: pKi

Please provide the recorded pKi for C[C@@H]1CN(c2cnc(C(F)(F)F)cn2)C[C@@H](C)N1C(=O)OCCC1CCN(Cc2ccccc2)CC1 , tested on human M5 receptor (Homo sapiens).
≤ 6.00

* * *

system: human M3 receptor (Homo sapiens, UniProt P20309)
Sequence (P20309 whole entry): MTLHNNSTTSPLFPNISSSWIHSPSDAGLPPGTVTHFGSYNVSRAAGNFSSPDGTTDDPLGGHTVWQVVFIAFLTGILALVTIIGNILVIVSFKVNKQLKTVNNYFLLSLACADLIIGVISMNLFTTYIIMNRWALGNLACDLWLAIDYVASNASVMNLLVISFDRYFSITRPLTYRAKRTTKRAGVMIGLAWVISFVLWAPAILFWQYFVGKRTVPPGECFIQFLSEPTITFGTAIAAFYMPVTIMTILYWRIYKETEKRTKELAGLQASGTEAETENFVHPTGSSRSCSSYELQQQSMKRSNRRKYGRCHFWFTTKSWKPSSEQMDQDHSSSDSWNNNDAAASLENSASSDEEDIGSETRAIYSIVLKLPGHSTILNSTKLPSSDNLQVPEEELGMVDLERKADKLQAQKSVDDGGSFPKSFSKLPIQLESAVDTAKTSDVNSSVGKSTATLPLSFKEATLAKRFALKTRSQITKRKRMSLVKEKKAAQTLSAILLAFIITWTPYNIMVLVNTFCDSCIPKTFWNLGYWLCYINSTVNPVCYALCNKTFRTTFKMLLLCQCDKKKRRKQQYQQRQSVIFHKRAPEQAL
readout: Ki

Entry C[C@@H]1CN(c2cnc(C(F)(F)F)cn2)C[C@H](C)N1C(=O)OCCC1CCN(Cc2ccccc2)CC1 : reported Ki = ?
≥ 1000 nM

* * *

system: MDR1 (Multidrug resistance protein 1) (Homo sapiens)
Construct: host or cells: MDCK cells
assay_info: MDCK-MDR1 assay (apparent permeability and efflux ratio)
Type: in vitro ADME
test_settings: MDCK-MDR1, pH 7.4, 2 hours at 37° C., basolateral to apical
readout: Papp B→A at 2 h, 5 μM (nm/s)

[[record]]
line_notation = "C[C@@H]1CN(c2cnc(C(F)(F)F)cn2)C[C@H](C)N1C(=O)OCCC1CCN(Cc2ccccc2)CC1"
value_observed = 213

[[record]]
line_notation = "C[C@@H]1CN(c2ncc(C#N)cn2)C[C@H](C)N1C(=O)NCCC1CCN(Cc2ccccc2)CC1"
value_observed = 512


1. C[C@@H]1CN(c2cnc(C(F)(F)F)cn2)C[C@@H](C)N1C(=O)OCCC1CCN(Cc2ccccc2)CC1
2. C[C@@H]1CN(c2cnc(C(F)(F)F)cn2)C[C@@H](C)N1C(=O)NCCC1CCN(Cc2ccccc2)CC1
// which entry reports the smaller Papp B→A at 2 h, 5 μM, 1 or 2 ? Select an item and report its label.
1
(1: 241 nm/s, 2: 686 nm/s)

* * *

assay_info: Rat pharmacokinetics (IV and PO)
Format: in vivo, male Sprague-Dawley rats
test_settings: male, Sprague-Dawley, plasma, iv, 1 mg/kg, IV bolus, HCl salt
readout: AUC(0-inf) (ng·h/mL)

I. C[C@@H]1CN(c2cnc(C(F)(F)F)cn2)C[C@@H](C)N1C(=O)NCCC1CCN(Cc2ccccc2)CC1 [Compound 4A]
II. C[C@@H]1CN(c2cnc(C(F)(F)F)cn2)C[C@H](C)N1C(=O)OCCC1CCN(Cc2ccccc2)CC1 [Compound 1]
// returns I or II , whichever has the lower AUC(0-inf) Field: selected label. Fill in the label of the entry you choose.
I
(I: 204 ng·h/mL, II: 415 ng·h/mL)

* * *

system: MDR1 (Multidrug resistance protein 1) (Homo sapiens, UniProt P08183)
Construct: host or cells: MDCK cells
assay_info: MDCK-MDR1 assay (apparent permeability and efflux ratio)
Type: in vitro ADME
test_settings: MDCK-MDR1, pH 7.4, 2 hours at 37° C., apical to basolateral
readout: Papp A→B at 2 h, 5 µM (×10⁻⁶ cm/s)

Reference set, count: 2
[[record]]
line_notation = "C[C@@H]1CN(c2cnc(C(F)(F)F)cn2)C[C@@H](C)N1C(=O)OCCC1CCN(Cc2ccccc2)CC1"
unit_symbol = "×10⁻⁶ cm/s"
value_observed = 17.5

[[record]]
line_notation = "C[C@@H]1CN(c2ncc(C#N)cn2)C[C@H](C)N1C(=O)NCCC1CCN(Cc2ccccc2)CC1"
unit_symbol = "×10⁻⁶ cm/s"
value_observed = 0.53


I. C[C@@H]1CN(c2cnc(C(F)(F)F)cn2)C[C@@H](C)N1C(=O)NCCC1CCN(Cc2ccccc2)CC1
II. C[C@@H]1CN(c2cnc(C(F)(F)F)cn2)C[C@H](C)N1C(=O)OCCC1CCN(Cc2ccccc2)CC1
Which of these two has the smaller recorded Papp A→B at 2 h, 5 µM: I or II ? Response format: the label of the selected entry.
I

* * *

assay_info: Rat pharmacokinetics (IV and PO)
Assay type: in vivo, male Sprague-Dawley rats
test_settings: male, Sprague-Dawley, plasma, po, 10 mg/kg, PO 10 mg/kg, 1% Tween-80 in water (suspension)
readout: Cmax (ng/mL)
The figure you give is taken to be in ng/mL; do not add the unit.

Name the reported Cmax value associated with the molecule C[C@@H]1CN(c2cnc(C(F)(F)F)cn2)C[C@H](C)N1C(=O)OCCC1CCN(Cc2ccccc2)CC1
280
